# Target Desc: T1, human IL-23 (Sino Biological, CT048-H08H) (human, UniProt Q9NPF7 20-189; P29460 23-328)
# T1 construct: also called human IL-23 protein; Human IL-23 p19
# T1 sequence (looked up) 1: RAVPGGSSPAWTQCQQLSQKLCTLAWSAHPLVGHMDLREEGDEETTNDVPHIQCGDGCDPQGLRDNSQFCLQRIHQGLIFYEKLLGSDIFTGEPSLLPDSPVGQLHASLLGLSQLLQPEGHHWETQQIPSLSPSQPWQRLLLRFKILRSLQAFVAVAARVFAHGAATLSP
# T1 sequence (looked up) 2: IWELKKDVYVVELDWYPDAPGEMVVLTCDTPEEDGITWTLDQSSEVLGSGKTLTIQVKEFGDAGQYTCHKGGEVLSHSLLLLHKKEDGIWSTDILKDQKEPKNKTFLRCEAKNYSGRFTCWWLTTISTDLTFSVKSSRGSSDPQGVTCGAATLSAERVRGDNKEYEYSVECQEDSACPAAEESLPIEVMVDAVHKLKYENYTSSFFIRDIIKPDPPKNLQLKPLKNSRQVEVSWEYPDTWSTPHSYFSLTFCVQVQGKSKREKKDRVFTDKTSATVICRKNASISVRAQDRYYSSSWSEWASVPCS
# Test Summary: SPR (Biacore), Protein A capture of sample, 1:1 model
koff reference
Just the number in s⁻¹, nothing appended.

Below, 9 binders whose answers are already recorded.
Binder	Experimental Value
Hu38-12 (antibody, human IgG1, kappa, L234A L235A, V domains shown, humanized mAb38, IgG1/kappa) VH: EFQLVQSGAEVKKPGASVKVSCKASGYSFTDHNMNWVRQAPGQRLEWMGVINPNYGTTTYNQKFKGRVTITVDQSASTAYMELSSLRSEDTAVYYCARRGFAYWGQGTLVTVSS VL: DIVMTQTPLSLPVTPGEPASISCRSSKSLLYKDGKTYLNWFLQKPGQSPQLLIYLMQTRASGVPDRFSGSGSGTDLTLKISRVEAEDVGVYYCQQIAEYPFTFGSGTKLEIKR	6.12e-05
risankizumab (antibody, human IgG1, kappa, L234A L235A, V domains shown, control anti-IL-23 antibody; also called control molecule) VH: QVQLVQSGAEVKKPGSSVKVSCKASGYTFTDQTIHWMRQAPGQGLEWIGYIYPRDDSPKYNENFKGKVTITADKSTSTAYMELSSLRSEDTAVYYCAIPDRSGYAWFIYWGQGTLVTVSS VL: DIQMTQSPSSLSASVGDRVTITCKASRDVAIAVAWYQQKPGKVPKLLIYWASTRHTGVPSRFSGSGSRTDFTLTISSLQPEDVADYFCHQYSSYPFTFGSGTKLEIKR	4.91e-05
Hu29-19 (antibody, human IgG1, kappa, L234A L235A, V domains shown, humanized mAb29, IgG1/kappa) VH: QVTLKESGPVLVKPTETLTLTCTVSGFSLTNYAISWVRQPPGKGLEWLGVIWTGGGTNYNSGIKSRLTISKDNSKSQVVLTMTNMDPVDTARYYCVREGDYGSYAGAMDYWGQGTTVTVSS VL: DIVLTQSPDSLAVSLGERATINCRASESVDYYGISSMHWFQQKPGQPPKLLIYRASNLESGIPARFSGSGSRTDFTLTISSLQAEDVAVYYCQQANKDPYTFGGGTKVEIKR	4.08e-05
Hu38-15 (antibody, human IgG1, kappa, L234A L235A, V domains shown, humanized mAb38, IgG1/kappa) VH: EFQLVQSGAEVKKPGASVKVSCKASGYSFTDHNMNWVRQAPGQSLEWMGVINPNYGTTTYNQKFKGRVTITVDQSASTAYMELSSLRSEDTAVYYCARRGFAYWGQGTLVTVSS VL: DIVITQTPLSLPVTPGEPASISCRSSKSLLYKDGKTYLNWFLQRPGQSPQLLIYLMSTRASGVPDRFSGSGSGTDLTLKISRVEAEDVGVYYCQQIAEYPFTFGSGTKLEIKR	8.3e-05
Ch29 (antibody, human IgG1, kappa, L234A L235A, V domains shown, chimeric: murine variable regions on hIgG1/hkappa; also called chimeric antibody of mAb29) VH: QVQLKESGPGLVAPSQSLSITCTVSGFSLTSYAISWVRQPPGKGLEWLGVIWTGGGTNYNSGIKSRLTISKDNSKSQVFLNMNSLQTEDTARYYCVREGDYGSYAGAMDYWGQGTSVTVSS VL: DIVLTQSPASLAVSLGQRATISCRASESVDYYGISSMHWFQQKPGQPPKLLIYRASNLESGIPARFSGSGSRTDFTLTINRVETDDVATYYCQQANKDPYTFGGGTKLEIKR	8.4e-05
Hu38-11 (antibody, human IgG1, kappa, L234A L235A, V domains shown, humanized mAb38, IgG1/kappa) VH: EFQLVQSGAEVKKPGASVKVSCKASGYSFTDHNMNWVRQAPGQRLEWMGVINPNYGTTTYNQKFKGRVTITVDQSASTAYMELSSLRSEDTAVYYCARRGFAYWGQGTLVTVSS VL: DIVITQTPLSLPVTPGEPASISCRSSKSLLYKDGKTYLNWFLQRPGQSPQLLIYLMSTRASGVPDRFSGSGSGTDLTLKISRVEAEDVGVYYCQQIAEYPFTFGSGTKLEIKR	6.15e-05
Hu38-10 (antibody, human IgG1, kappa, L234A L235A, V domains shown, humanized mAb38, IgG1/kappa) VH: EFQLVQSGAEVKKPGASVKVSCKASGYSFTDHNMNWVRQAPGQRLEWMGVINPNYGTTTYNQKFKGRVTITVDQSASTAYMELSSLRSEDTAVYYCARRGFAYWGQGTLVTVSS VL: DIVMTQTPLSLPVTPGEPASISCRSSKSLLYKDGKTYLNWFLQKPGQSPQLLIYLMSTRASGVPDRFSGSGSGTDLTLKISRVEAEDVGVYYCQQIAEYPFTFGSGTKLEIKR	7.07e-05
Hu38-6 (antibody, human IgG1, kappa, L234A L235A, V domains shown, humanized mAb38, IgG1/kappa) VH: EVQLVQSGAEVKKPGASVKVSCKASGYSFTDHNMNWVRQAPGQRLEWMGVINPNYGTTTYNQKFKGRVTITVDTSASTAYMELSSLRSEDTAVYYCARRGFAYWGQGTLVTVSS VL: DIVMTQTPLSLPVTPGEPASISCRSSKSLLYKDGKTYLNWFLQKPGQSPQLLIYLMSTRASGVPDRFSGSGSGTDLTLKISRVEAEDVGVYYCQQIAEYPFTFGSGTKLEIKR	3.91e-05
Hu38-5 (antibody, human IgG1, kappa, L234A L235A, V domains shown, humanized mAb38, IgG1/kappa) VH: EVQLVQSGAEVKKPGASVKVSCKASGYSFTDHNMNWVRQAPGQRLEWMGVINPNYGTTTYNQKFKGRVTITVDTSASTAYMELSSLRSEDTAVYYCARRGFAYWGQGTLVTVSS VL: DIVMTQTPLSLPVTPGEPASISCRSSKSLLYKDGKTYLNWYLQKPGQSPQLLIYLMSTRASGVPDRFSGSGSGTDFTLKISRVEAEDVGVYYCQQIAEYPFTFGSGTKLEIKR	5.82e-05

Please give the documented koff of Hu38-14 (antibody, human IgG1, kappa, L234A L235A, V domains shown, humanized mAb38, IgG1/kappa) VH: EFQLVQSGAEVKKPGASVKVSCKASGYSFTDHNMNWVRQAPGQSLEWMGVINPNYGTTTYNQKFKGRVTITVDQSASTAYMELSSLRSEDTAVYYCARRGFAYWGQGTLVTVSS VL: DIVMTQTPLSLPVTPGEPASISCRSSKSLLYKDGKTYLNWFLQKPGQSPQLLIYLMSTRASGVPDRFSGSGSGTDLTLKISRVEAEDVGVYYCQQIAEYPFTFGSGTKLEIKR
5.45e-05
